Source listed as patent US20200292534A1.

# TGT: T1, NLpoly11S
# T1 chain: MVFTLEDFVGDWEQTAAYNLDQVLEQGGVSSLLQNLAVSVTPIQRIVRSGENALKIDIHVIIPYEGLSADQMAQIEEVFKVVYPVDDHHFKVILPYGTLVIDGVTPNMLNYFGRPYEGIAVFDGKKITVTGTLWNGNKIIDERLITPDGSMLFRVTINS
# PROCEDURE_SUMMARY: luminescence complementation titration, one-site specific binding fit
pKd: −log10 of the molar value.
So basically: pKd at 5 or higher? That is Condition met. Lower than 5? That is Condition not met.

Reported pKd at or above 5? VEGYRLFKEIS (modifications not checked) [array2.61] Condition not met

For this binder, is measured pKd 5 or higher? VEGYRLFKQIS (modifications not checked) [array2.58] Condition met

Determine whether this binder has pKd no lower than 5: VEGYRLFQKES (modifications not checked) [array2.66] Condition met

Does the binder VTGYRLFKQAL (modifications not checked) [array2.32] have recorded pKd that is 5 or more? Condition met

Test whether the binder VTGYRLFKKEL (modifications not checked) [array2.30] records pKd of 5 or higher. Condition met

Can VEGYRLFEKES (modifications not checked) [array2.75] be said to have pKd at or above 5? Condition met
